Molecular target: CCR1 (Homo sapiens, UniProt P32246)
Assay: functional cellular assay measuring calcium flux in response to MIP1α in CCR1-transfected cells (Method A or Method B)
Details: cells stably expressing recombinant CCR1 and G-alpha-16; MIP-1alpha added at EC80; method (A: FLIPR TETRA, B: FDSS6000) not stated per compound
pIC50: −log10 of the molar value.
# cutoff 8 applies to pIC50; >= gives fulfilled, < gives not fulfilled

Check if pIC50 >= 8 (inclusive). Item: `CC[C@H](NC(=O)c1cnn(-c2ccc(Cl)cc2)c1C)c1cnc(S(C)(=O)=O)s1`
not fulfilled

Check if pIC50 >= 8 (inclusive). Item: CCCC(NC(=O)c1cnn(-c2ccc(Cl)cc2)c1C)c1ccnc(S(N)(=O)=O)c1 (stereo not shown)
not fulfilled

Check if pIC50 >= 8 (inclusive). Item: CCCC(NC(=O)c1cnn(-c2ccc(Cl)c(Cl)c2)c1C)c1ccnc(Br)c1 (stereo not shown)
fulfilled

Check if pIC50 >= 8 (inclusive). Item: CCCC(NC(=O)c1cnn(-c2ccc(Cl)cc2)c1C)c1cncc(S(=O)(=O)CC)c1 (stereo not shown)
not fulfilled

Check if pIC50 >= 8 (inclusive). Item: CCCC(NC(=O)c1cnn(-c2ccc(Cl)c(Cl)c2)c1C)c1ccc(S(C)(=O)=O)nc1 (stereo not shown)
fulfilled

Check if pIC50 >= 8 (inclusive). Item: `CCC[C@H](NC(=O)c1cnn(-c2ccc(Cl)cc2)c1C)c1cccc(Br)c1`
not fulfilled

Check if pIC50 >= 8 (inclusive). Item: CCCC(NC(=O)c1cnn(-c2ccc(Cl)cc2)c1C)c1cncc(S(=O)(=O)C(C)C)c1 (stereo not shown)
not fulfilled

Check if pIC50 >= 8 (inclusive). Item: CCCC(NC(=O)c1cnn(-c2ccc(Cl)cc2)c1C)c1ccc(S(=O)(=O)NCCO)nc1 (stereo not shown)
not fulfilled

Check if pIC50 >= 8 (inclusive). Item: CCCC(NC(=O)c1cnn(-c2ccc(Cl)cc2)c1C)c1ccnc(S(=O)(=O)N(C)C)c1 (stereo not shown)
fulfilled

Check if pIC50 >= 8 (inclusive). Item: CCCC(NC(=O)c1cnn(-c2ccc(Cl)cc2)c1C)c1cncc(Br)c1 (stereo not shown)
fulfilled

Check if pIC50 >= 8 (inclusive). Item: `Cc1c(C(=O)N[C@@H](C)c2ccc(F)c(C(F)(F)F)c2)cnn1-c1ccc(Cl)c(Cl)c1`
not fulfilled

Check if pIC50 >= 8 (inclusive). Item: CCC[C@H](NC(=O)c1cnn(-c2ccc(Cl)cc2)c1C)c1ccc(S(C)(=O)=O)nc1 (stereo in doubt)
not fulfilled

Check if pIC50 >= 8 (inclusive). Item: CCCC(NC(=O)c1cnn(-c2ccc(Cl)cc2)c1C)c1ccnc(Br)c1 (stereo not shown)
fulfilled

* * *

Biological target: CCR1 (Homo sapiens, UniProt P32246)
Sequence (P32246 1-355): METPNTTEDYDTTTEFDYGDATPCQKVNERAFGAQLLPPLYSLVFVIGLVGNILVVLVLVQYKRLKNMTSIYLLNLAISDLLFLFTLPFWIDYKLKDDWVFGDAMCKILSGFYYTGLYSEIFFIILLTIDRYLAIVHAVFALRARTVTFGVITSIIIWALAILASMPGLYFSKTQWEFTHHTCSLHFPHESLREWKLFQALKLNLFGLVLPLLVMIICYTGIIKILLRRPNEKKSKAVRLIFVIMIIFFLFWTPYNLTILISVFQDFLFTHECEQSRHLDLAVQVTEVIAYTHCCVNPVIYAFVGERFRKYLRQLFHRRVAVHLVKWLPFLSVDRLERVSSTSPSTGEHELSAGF
Assay: functional cellular assay measuring calcium flux in response to MIP1α in CCR1-transfected cells (Method A or Method B)
Settings: cells stably expressing recombinant CCR1 and G-alpha-16; MIP-1alpha added at EC80; method (A: FLIPR TETRA, B: FDSS6000) not stated per compound
Task for the reader: assign each of the following molecules its reported IC50.
Hi! Could you send only the number? It should be in µM, unit omitted.

Query (molecule): CCCC(NC(=O)c1cnn(-c2ccc(Cl)cc2)c1C)c1ccc(S(=O)(=O)NC2CCOCC2)nc1 (stereo not shown) ; field requested: IC50
0.041

Query (molecule): `C=CCC[C@H](NC(=O)c1cnn(-c2ccc(Cl)c(Cl)c2)c1C)c1cccc(Br)c1` ; field requested: IC50
0.041

Query (molecule): `CCC[C@H](NC(=O)c1cnn(-c2ccc(Cl)cc2)c1CNC)c1cccc(C(F)(F)F)c1` ; field requested: IC50
0.098

Query (molecule): `CC[C@H](NC(=O)c1cnn(-c2ccc(Cl)cc2)c1C)c1ccnc(S(=O)(=O)NC)c1` ; field requested: IC50
0.019

Query (molecule): CCCC(NC(=O)c1cnn(-c2ccc(Cl)c(F)c2)c1C)c1ccc(S(C)(=O)=O)nc1 (stereo not shown) ; field requested: IC50
0.091

Query (molecule): CCCC(NC(=O)c1cnn(-c2ccc(Cl)cc2)c1C)c1cncc(S(=O)(=O)C2CC2)c1 (stereo not shown) ; field requested: IC50
0.085

Query (molecule): CCCC(NC(=O)c1cnn(-c2ccc(F)c(Cl)c2)c1C)c1cncc(S(C)(=O)=O)c1 (stereo not shown) ; field requested: IC50
0.0059

Query (molecule): CCCC(NC(=O)c1cnn(-c2ccc(Cl)c(F)c2)c1C)c1cncc(S(C)(=O)=O)c1 (stereo not shown) ; field requested: IC50
0.037

Query (molecule): `CCC[C@H](NC(=O)c1cnn(-c2ccc(Cl)cc2)c1C)c1ccc(F)c(C(F)(F)F)c1` ; field requested: IC50
0.01

Query (molecule): `C=CCCC[C@H](NC(=O)c1cnn(-c2ccc(Cl)cc2)c1C)c1cccc(C(F)(F)F)c1` ; field requested: IC50
0.03

Query (molecule): CCCC(NC(=O)c1cnn(-c2ccc(F)c(Cl)c2)c1C)c1ccc(S(C)(=O)=O)nc1 (stereo not shown) ; field requested: IC50
0.071

Query (molecule): `CC[C@H](NC(=O)c1cnn(-c2ccc(Cl)cc2)c1C)c1cncc(Br)c1` ; field requested: IC50
0.02

Query (molecule): `CC[C@H](NC(=O)c1cnn(-c2ccc(Cl)cc2)c1C)c1ccnc(S(C)(=O)=O)c1` ; field requested: IC50
0.029

Query (molecule): `Cc1c(C(=O)N[C@@H](C)c2cccc3ccccc23)cnn1-c1ccc(Cl)c(Cl)c1` ; field requested: IC50
0.054

Query (molecule): CCCC(NC(=O)c1cnn(-c2ccc(Cl)cc2)c1C)c1ccc(S(=O)(=O)CC)nc1 (stereo not shown) ; field requested: IC50
0.06

Query (molecule): CCCC(NC(=O)c1cnn(-c2ccc(Cl)cc2)c1C)c1ccnc(S(=O)(=O)CC)c1 (stereo not shown) ; field requested: IC50
0.0057

Query (molecule): CCCC(NC(=O)c1cnn(-c2ccc(Cl)c(Cl)c2)c1C)c1ccnc(S(C)(=O)=O)c1 (stereo not shown) ; field requested: IC50
0.0003

Query (molecule): CCCC(NC(=O)c1cnn(-c2ccc(Cl)cc2)c1C)c1ccnc(S(=O)(=O)NC)c1 (stereo not shown) ; field requested: IC50
0.0029

Query (molecule): CCCC(NC(=O)c1cnn(-c2ccc(Cl)cc2)c1C)c1ccc(S(=O)(=O)NC)nc1 (stereo not shown) ; field requested: IC50
0.0063

Query (molecule): CCCC(NC(=O)c1cnn(-c2ccc(Cl)cc2)c1C)c1cncc(S(=O)(=O)NC)c1 (stereo not shown) ; field requested: IC50
0.0041

Query (molecule): CCCC(NC(=O)c1cnn(-c2ccc(Cl)c(Cl)c2)c1C)c1cncc(S(C)(=O)=O)c1 (stereo not shown) ; field requested: IC50
0.001

Query (molecule): CCCC(NC(=O)c1cnn(-c2ccc(Cl)cc2)c1C)c1cncc(S(=O)(=O)N(C)C)c1 (stereo not shown) ; field requested: IC50
0.0049
